- System: coronary occlusion in the rat
- ASSAY_TEXT: Anti-ischemic and anti-hypertensive activity: coronary occlusion in the anesthetized rat (elevation of the T wave of the electrocardiogram, arterial pressure)
- Type: in vivo, male albino rat of the Sprague-Dawley strain
- CONDITION_DESCRIPTION: Rattus norvegicus, iv, 1 h, read-out: ΔPb (maximum lowering of arterial pressure)
- From the text: The cardiac anti-ischemic activity of compounds manifests itself by their capacity to oppose the elevation of the T wave of the electrocardiogram, induced by a coronary occlusion in the rat. Continuous monitoring of the arterial pressure also enables to reveal the anti-hypertensive effects. […] The T electrocardiographic signal and the arterial pressure are continuously measured during the entire experiment. […]
Where a name gives a salt, the structure may show the parent alone.
READOUT: change in vivo at 3 µmol/kg (%)
Kindly answer with a numeric value in %, unit omitted.

- MOLECULE: "NC(=O)c1cccc(Cc2c[nH]cn2)c1O [Mivazerol, hydrochloride, reference compound]"
  SUBJECT_OF_TEST: "coronary occlusion in the rat"
  change in vivo at 3 µmol/kg [%]: -6
- MOLECULE: "Cl.Oc1cccc2c1CCCC2c1c[nH]cn1 (centres unmarked) [Compound F, hydrochloride]"
  SUBJECT_OF_TEST: "coronary occlusion in the rat"
  change in vivo at 3 µmol/kg [%]: -36
- MOLECULE: "Cl.Oc1ccc2c(c1)CCC2c1c[nH]cn1 (centres unmarked) [Compound H, hydrochloride]"
  SUBJECT_OF_TEST: "coronary occlusion in the rat"
  change in vivo at 3 µmol/kg [%]: -19
- MOLECULE: "Cc1ccc2c(c1)CCCC2c1c[nH]cn1 (centres unmarked) [Compound G]"
  SUBJECT_OF_TEST: "coronary occlusion in the rat"
  change in vivo at 3 µmol/kg [%]: -14
- MOLECULE: "COc1ccc2c(c1)CCCC2c1c[nH]cn1 (single isomer, unassigned; (+)) [Compound A]"
  SUBJECT_OF_TEST: "coronary occlusion in the rat"
  change in vivo at 3 µmol/kg [%]: -28
- MOLECULE: "COc1ccc2c(c1)CCC2c1c[nH]cn1 (centres unmarked) [Compound C]"
  SUBJECT_OF_TEST: "coronary occlusion in the rat"
  change in vivo at 3 µmol/kg [%]: -43
- MOLECULE: "Cc1cccc2c1CCCC2c1c[nH]cn1 (centres unmarked) [Compound B]"
  SUBJECT_OF_TEST: "coronary occlusion in the rat"
  change in vivo at 3 µmol/kg [%]: -16

Input: I have this molecule here, Cl.Oc1cc2c(cc1O)C(c1c[nH]cn1)CCC2 (centres unmarked) [Compound K, hydrochloride] , and I need its recorded change in vivo at 3 µmol/kg.
Output: -41

* * *

- Tested on: male NMRI mice
- ASSAY_TEXT: Toxicity, Irwin's test
- Format: in vivo
- CONDITION_DESCRIPTION: intraperitoneal
Hi, to clarify the labels: 1 (yes) covers Lethal dose (dose causing the death of two out of three animals in 48 hours) from 200 mg/kg upward, 0 (no) covers anything below 200 mg/kg.

Solved entries:
- COMPOUND: "Cl.Oc1ccc2c(c1)CCC2c1c[nH]cn1 (centres unmarked)"
  QUALITATIVE_LABEL: "1 (yes)"
- COMPOUND: "COc1cccc2c1CCCC2c1c[nH]cn1 (centres unmarked)"
  QUALITATIVE_LABEL: "0 (no)"
- COMPOUND: "COc1ccc2c(c1)CCCC2c1c[nH]cn1 (single isomer, unassigned; (+))"
  QUALITATIVE_LABEL: "1 (yes)"
- COMPOUND: "Cc1ccc2c(c1)CCCC2c1c[nH]cn1 (centres unmarked)"
  QUALITATIVE_LABEL: "0 (no)"

Moving on to the next compound.
Input: Identify whether the reported Lethal dose (dose causing the death of two out of three animals in 48 hours) of the following compound is 200 mg/kg or greater: COc1cccc2c1C(c1c[nH]cn1)CCC2 (centres unmarked)
Output: 1 (yes)

* * *

Listed next: entries and their corresponding log10 IC30.
- SUBJECT_OF_TEST: postsynaptic α1 -adrenergic receptor (Rattus norvegicus)
- Construct: isolated aorta of the rat; from tissue; host or cells: rat isolated aorta
- ASSAY_TEXT: Postsynaptic α1-antagonist activity: inhibition of norepinephrine-induced contraction of the isolated aorta of the rat
- CONDITION_DESCRIPTION: read-out: ED30 (concentration which causes 30% inhibition of the contraction induced by norepinephrine)
In plain terms, each number is the log10 of measured IC30 in nM.

- MOLECULE: "Cc1ccc2c(c1)CCCC2c1c[nH]cn1 (centres unmarked)"
  SUBJECT_OF_TEST: "postsynaptic α1 -adrenergic receptor (Rattus norvegicus)"
  OBS_VALUE: 1.86

Input: I have this molecule here, Oc1ccc2c(c1)CCCC2c1c[nH]cn1 (single isomer, unassigned; (+)) , and I need its recorded log10 IC30.
Output: 2.62

Input: I have this molecule here, Cl.Oc1cccc2c1CCCC2c1c[nH]cn1 (centres unmarked) [Compound F, hydrochloride] , and I need its recorded log10 IC30.
Output: 2.36

Input: I have this molecule here, COc1cccc2c1CCCC2c1c[nH]cn1 (centres unmarked) , and I need its recorded log10 IC30.
Output: 2.66

* * *

- Tested on: coronary occlusion in the rat
- ASSAY_TEXT: Anti-ischemic and anti-hypertensive activity: coronary occlusion in the anesthetized rat (elevation of the T wave of the electrocardiogram, arterial pressure)
- Format: in vivo, male albino rat of the Sprague-Dawley strain
- CONDITION_DESCRIPTION: Rattus norvegicus, iv, 1 h, read-out: ΔT4 (anti-ischemic effect: change in elevation of the T wave, occlusion 4 vs occlusion 2)
Where a name gives a salt, the structure may show the parent alone.
Labelling field: enter true if recorded change in vivo at 3 µmol/kg is less than -30%. Enter false if it equals or exceeds that cut-off.

Solved entries:
- MOLECULE: "Cc1cccc2c1CCCC2c1c[nH]cn1 (centres unmarked) [Compound B]"
  QUALITATIVE_LABEL: "false"
- MOLECULE: "Cc1ccc2c(c1)CCCC2c1c[nH]cn1 (centres unmarked) [Compound G]"
  QUALITATIVE_LABEL: "false"
- MOLECULE: "COc1ccc2c(c1)CCC2c1c[nH]cn1 (centres unmarked) [Compound C]"
  QUALITATIVE_LABEL: "true"
- MOLECULE: "Cl.Oc1ccc2c(c1)CCC2c1c[nH]cn1 (centres unmarked) [Compound H, hydrochloride]"
  QUALITATIVE_LABEL: "true"
- MOLECULE: "NC(=O)c1cccc(Cc2c[nH]cn2)c1O [Mivazerol, hydrochloride, reference compound]"
  QUALITATIVE_LABEL: "false"
- MOLECULE: "COc1ccc2c(c1)CCCC2c1c[nH]cn1 (single isomer, unassigned; (+)) [Compound A]"
  QUALITATIVE_LABEL: "true"
- MOLECULE: "Cl.Oc1cccc2c1CCCC2c1c[nH]cn1 (centres unmarked) [Compound F, hydrochloride]"
  QUALITATIVE_LABEL: "true"

Input: Hello, I'm reviewing records and need to know if change in vivo at 3 µmol/kg of Cl.Oc1cc2c(cc1O)C(c1c[nH]cn1)CCC2 (centres unmarked) [Compound K, hydrochloride] is below -30%. Could you check?
Output: true

* * *

- System: male NMRI mice
- ASSAY_TEXT: Toxicity, Irwin's test
- Format: in vivo
- CONDITION_DESCRIPTION: intraperitoneal
READOUT: Lethal dose (dose causing the death of two out of three animals in 48 hours)

Example entries begin here.
- MOLECULE: "Cc1cccc2c1CCCC2c1c[nH]cn1 (stereo not drawn)"
  OBS_VALUE: "> 67.9 mg/kg"
- MOLECULE: "COc1cc2c(cc1OC)C(c1c[nH]cn1)CCC2 (stereo not drawn)"
  OBS_VALUE: "258.3 mg/kg"
- MOLECULE: "Cl.Oc1cc2c(cc1O)C(c1c[nH]cn1)CCC2 (stereo not drawn)"
  OBS_VALUE: "> 85.4 mg/kg"
- MOLECULE: "COc1ccc2c(c1)CCC2c1c[nH]cn1 (stereo not drawn)"
  OBS_VALUE: "214.3 mg/kg"

Input: I have this molecule here, Cl.Oc1cccc2c1CCCC2c1c[nH]cn1 (stereo not drawn) , and I need its recorded Lethal dose (dose causing the death of two out of three animals in 48 hours).
Output: 214.3 mg/kg

Input: I have this molecule here, Oc1ccc2c(c1)CCCC2c1c[nH]cn1 (single isomer, unassigned; (+)) , and I need its recorded Lethal dose (dose causing the death of two out of three animals in 48 hours).
Output: > 68.6 mg/kg

* * *

- SUBJECT_OF_TEST: postsynaptic α1 -adrenergic receptor (Rattus norvegicus)
- Construct: isolated aorta of the rat; from tissue; host or cells: rat isolated aorta
- Sequence (P23944 1-561): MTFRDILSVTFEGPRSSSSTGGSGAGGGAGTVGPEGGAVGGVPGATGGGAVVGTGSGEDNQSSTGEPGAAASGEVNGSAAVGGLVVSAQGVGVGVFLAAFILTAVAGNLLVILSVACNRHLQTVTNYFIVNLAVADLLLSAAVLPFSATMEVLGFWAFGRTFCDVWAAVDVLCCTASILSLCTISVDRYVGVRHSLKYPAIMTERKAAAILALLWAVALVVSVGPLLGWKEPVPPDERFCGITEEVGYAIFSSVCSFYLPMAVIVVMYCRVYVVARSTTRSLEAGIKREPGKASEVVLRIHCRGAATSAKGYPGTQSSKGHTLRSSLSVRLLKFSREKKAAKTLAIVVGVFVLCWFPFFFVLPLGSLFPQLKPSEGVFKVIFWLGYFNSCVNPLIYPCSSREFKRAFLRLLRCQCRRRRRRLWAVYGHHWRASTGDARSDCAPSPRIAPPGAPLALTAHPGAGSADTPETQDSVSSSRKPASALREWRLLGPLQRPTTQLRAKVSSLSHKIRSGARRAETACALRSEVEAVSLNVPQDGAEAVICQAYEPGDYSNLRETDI
- ASSAY_TEXT: Postsynaptic α1-antagonist activity: inhibition of norepinephrine-induced contraction of the isolated aorta of the rat
- CONDITION_DESCRIPTION: read-out: ED30 (concentration which causes 30% inhibition of the contraction induced by norepinephrine)
READOUT: IC30
Write down the value, and be sure its unit follows.

Example entries begin here.
- COMPOUND: "COc1cc2nc(N3CCN(C(=O)c4ccco4)CC3)nc(N)c2cc1OC [Prazosin, reference compound]"
  IC30: "0.23 nM"
- COMPOUND: "COc1cccc2c1C(c1c[nH]cn1)CCC2 (stereo not shown) [Compound I]"
  IC30: "1800 nM"
- COMPOUND: "COc1cc2c(cc1OC)C(c1c[nH]cn1)CCC2 (stereo not shown) [Compound J]"
  IC30: "2900 nM"
- COMPOUND: "COc1ccc2c(c1)CCCC2c1c[nH]cn1 (single isomer, unassigned; (+)) [Compound A]"
  IC30: "21 nM"
- COMPOUND: "Cl.Oc1ccc2c(c1)CCC2c1c[nH]cn1 (stereo not shown) [Compound H, hydrochloride]"
  IC30: "210 nM"
- COMPOUND: "Cc1cccc2c1CCCC2c1c[nH]cn1 (stereo not shown) [Compound B]"
  IC30: "33 nM"

Switching to the query record.
Input: I have this compound here, COc1ccc2c(c1)CCC2c1c[nH]cn1 (stereo not shown) [Compound C] , and I need its recorded IC30.
Output: 100 nM
